SYSTEM: Sodium-dependent noradrenaline transporter (Homo sapiens, UniProt P23975)
Sequence (P23975 whole entry): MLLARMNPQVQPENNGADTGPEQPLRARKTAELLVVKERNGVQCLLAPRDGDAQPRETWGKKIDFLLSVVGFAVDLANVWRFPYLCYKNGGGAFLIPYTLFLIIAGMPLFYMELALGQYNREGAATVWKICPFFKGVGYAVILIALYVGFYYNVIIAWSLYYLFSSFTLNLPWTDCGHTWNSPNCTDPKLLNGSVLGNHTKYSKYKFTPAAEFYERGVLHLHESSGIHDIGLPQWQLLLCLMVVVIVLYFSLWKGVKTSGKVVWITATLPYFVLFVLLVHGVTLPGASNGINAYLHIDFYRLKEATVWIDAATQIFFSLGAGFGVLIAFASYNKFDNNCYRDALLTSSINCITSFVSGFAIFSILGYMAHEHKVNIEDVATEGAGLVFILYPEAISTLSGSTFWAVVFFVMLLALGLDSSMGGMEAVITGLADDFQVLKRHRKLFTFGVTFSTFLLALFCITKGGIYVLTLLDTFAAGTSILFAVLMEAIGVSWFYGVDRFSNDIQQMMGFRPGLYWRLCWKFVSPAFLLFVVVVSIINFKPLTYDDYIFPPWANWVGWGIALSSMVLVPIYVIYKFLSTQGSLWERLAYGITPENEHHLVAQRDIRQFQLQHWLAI
TEST SUMMARY: Inhibition of radiolabeled noradrenaline reuptake at human NET expressed in HEK293 cells
Format: cell-based
pIC50: −log10 of the molar value.
Decision: pIC50 >= 6 yields label 1, all other cases yield label 0.

Here's what some known entries look like.
[[record]]
smiles = "N#Cc1ccc2cc(OCC3CCNCC3)ccc2c1"
class_name = "label 0"

[[record]]
smiles = "CCCCN(Cc1ccc2ccccc2c1)[C@H]1CCNC1"
class_name = "label 1"

[[record]]
smiles = "CCCCN([C@H]1CCNC1)S(=O)(=O)c1ccc2ccccc2c1"
class_name = "label 0"

[[record]]
smiles = "CCN(C1CCNCC1)S(=O)(=O)c1ccc2ccccc2c1"
class_name = "label 0"


Turning now to a further compound:
Is the recorded value of pIC50 equal to or greater than 6 for this compound? `c1ccc2cc(COC3CCNCC3)ccc2c1`
label 0

* * *

Kindly supply the reported Ki values for the records listed here.
SYSTEM: Voltage-gated inwardly rectifying potassium channel KCNH2 (Homo sapiens)
Sequence (Q12809 whole entry): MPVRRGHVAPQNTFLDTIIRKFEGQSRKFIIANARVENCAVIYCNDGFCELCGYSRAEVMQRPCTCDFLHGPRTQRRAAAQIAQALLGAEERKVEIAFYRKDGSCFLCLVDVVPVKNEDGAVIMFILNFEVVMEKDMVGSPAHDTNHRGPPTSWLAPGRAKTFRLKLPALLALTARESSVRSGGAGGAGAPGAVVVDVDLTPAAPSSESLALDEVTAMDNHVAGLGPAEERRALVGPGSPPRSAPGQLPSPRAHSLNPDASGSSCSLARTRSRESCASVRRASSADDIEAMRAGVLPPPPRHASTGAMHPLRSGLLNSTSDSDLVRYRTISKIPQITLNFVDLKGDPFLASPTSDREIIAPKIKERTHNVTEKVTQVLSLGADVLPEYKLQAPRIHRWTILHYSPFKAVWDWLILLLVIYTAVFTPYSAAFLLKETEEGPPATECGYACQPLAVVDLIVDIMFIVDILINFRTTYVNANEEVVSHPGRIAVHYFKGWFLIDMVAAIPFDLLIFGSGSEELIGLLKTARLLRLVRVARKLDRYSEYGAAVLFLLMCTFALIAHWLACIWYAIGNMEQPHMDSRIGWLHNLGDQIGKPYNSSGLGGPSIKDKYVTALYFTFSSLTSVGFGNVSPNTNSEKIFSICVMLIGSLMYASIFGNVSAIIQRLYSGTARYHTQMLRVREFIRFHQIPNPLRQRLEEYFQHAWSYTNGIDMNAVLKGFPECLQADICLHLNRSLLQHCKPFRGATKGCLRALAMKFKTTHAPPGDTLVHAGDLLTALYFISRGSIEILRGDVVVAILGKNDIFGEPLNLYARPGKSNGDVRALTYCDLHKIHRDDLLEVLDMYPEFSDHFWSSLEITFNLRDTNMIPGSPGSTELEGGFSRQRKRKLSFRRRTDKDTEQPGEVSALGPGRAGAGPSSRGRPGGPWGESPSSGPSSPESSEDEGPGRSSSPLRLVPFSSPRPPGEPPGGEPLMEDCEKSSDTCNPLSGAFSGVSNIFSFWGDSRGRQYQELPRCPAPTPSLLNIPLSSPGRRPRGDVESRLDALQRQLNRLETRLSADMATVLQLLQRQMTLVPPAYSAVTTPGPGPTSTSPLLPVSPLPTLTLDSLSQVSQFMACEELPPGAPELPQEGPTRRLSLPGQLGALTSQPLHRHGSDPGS
Answers are plain numbers, in µM.

The examples below pair each entry with its known result.
[[record]]
smiles = "N#Cc1ccc2cc(CO[C@H]3CCNC3)ccc2c1"
observed_measurement = 4.5

[[record]]
smiles = "Cc1c(CCN2CCNCC2)ccc2cc(F)ccc12"
observed_measurement = 10.1

[[record]]
smiles = "c1ccc2cc(CO[C@H]3CCNC3)ccc2c1"
observed_measurement = 15.7

[[record]]
smiles = "CCCCN([C@H]1CCNC1)S(=O)(=O)c1ccc2ccccc2c1"
observed_measurement = 0.412

[[record]]
smiles = "Fc1ccc2cc(CCN3CCNCC3)ccc2c1"
observed_measurement = 8.5

[[record]]
smiles = "Fc1ccc2cc(CO[C@@H]3CCNC3)ccc2c1"
observed_measurement = 10.3

[[record]]
smiles = "CCCCN(C1CCNCC1)S(=O)(=O)c1ccc2ccccc2c1"
observed_measurement = 0.716

[[record]]
smiles = "N#Cc1ccc2ccc(OCC3CCNCC3)cc2c1"
observed_measurement = 3.5


Attention now shifts to the item below.
Given the entry `c1ccc2cc(CO[C@@H]3CCNC3)ccc2c1` , report its measured Ki.
16.4

* * *

SYSTEM: Sodium-dependent dopamine transporter (Homo sapiens, UniProt Q01959)
Sequence (Q01959 whole entry): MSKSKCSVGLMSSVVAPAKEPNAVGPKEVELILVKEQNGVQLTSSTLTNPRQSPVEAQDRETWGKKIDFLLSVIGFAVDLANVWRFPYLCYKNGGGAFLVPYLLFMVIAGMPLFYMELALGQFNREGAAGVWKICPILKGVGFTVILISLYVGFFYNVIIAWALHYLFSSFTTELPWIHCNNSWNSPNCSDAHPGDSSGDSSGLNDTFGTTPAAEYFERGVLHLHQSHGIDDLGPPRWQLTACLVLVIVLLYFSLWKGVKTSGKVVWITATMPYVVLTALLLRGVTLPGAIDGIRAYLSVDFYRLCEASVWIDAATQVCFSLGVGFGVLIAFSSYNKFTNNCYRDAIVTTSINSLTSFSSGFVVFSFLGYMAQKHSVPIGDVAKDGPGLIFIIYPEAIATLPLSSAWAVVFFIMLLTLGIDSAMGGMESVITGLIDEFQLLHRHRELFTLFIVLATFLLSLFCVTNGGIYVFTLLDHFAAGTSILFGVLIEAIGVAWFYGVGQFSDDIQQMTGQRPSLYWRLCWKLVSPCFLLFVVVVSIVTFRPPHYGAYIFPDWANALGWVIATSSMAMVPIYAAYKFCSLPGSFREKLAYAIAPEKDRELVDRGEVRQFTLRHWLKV
TEST SUMMARY: Inhibition of radiolabeled dopamine reuptake at human DAT expressed in HEK293 cells
pIC50: −log10 of the molar value.
Decision: pIC50 >= 5 yields rule met, all other cases yield rule not met.

Is the recorded value of pIC50 equal to or greater than 5 for this compound? `N#Cc1ccc2cc(OCC3CCNCC3)ccc2c1`
rule met

Is the recorded value of pIC50 equal to or greater than 5 for this compound? `c1ccc2cc(COC3CCNCC3)ccc2c1`
rule met

* * *

Kindly supply the reported IC50 values for the records listed here.
SYSTEM: Sodium-dependent noradrenaline transporter (Homo sapiens, UniProt P23975)
TEST SUMMARY: Inhibition of radiolabeled noradrenaline reuptake at human NET expressed in HEK293 cells
Give bare numbers, in µM.

The examples below pair each entry with its known result.
[[record]]
compound = "CN([C@@H]1CCNC1)S(=O)(=O)c1ccc2ccccc2c1"
system = "Sodium-dependent noradrenaline transporter (Homo sapiens, UniProt P23975)"
parameter = "IC50"
observed_measurement = 3

[[record]]
compound = "CN(Cc1ccc2ccccc2c1)[C@H]1CCNC1"
system = "Sodium-dependent noradrenaline transporter (Homo sapiens, UniProt P23975)"
parameter = "IC50"
observed_measurement = 5.4

[[record]]
compound = "N#Cc1ccc2cc(OC[C@@H]3CCNC3)ccc2c1"
system = "Sodium-dependent noradrenaline transporter (Homo sapiens, UniProt P23975)"
parameter = "IC50"
observed_measurement = 0.772

[[record]]
compound = "c1ccc2cc(CO[C@H]3CCNC3)ccc2c1"
system = "Sodium-dependent noradrenaline transporter (Homo sapiens, UniProt P23975)"
parameter = "IC50"
observed_measurement = 2.9


For each listed entry, give its IC50.
1. N#Cc1ccc2ccc(OCC3CCNCC3)cc2c1
2. Fc1ccc2cc(CO[C@@H]3CCNC3)ccc2c1
3. COCC(Oc1ccc2ccccc2c1)C1CCNCC1 (racemic)
4. CC(C)CN(Cc1ccc2ccccc2c1)[C@@H]1CCNC1
5. Cc1c(CCN2CCNCC2)ccc2cc(F)ccc12
6. c1ccc2cc(OCC3CCNCC3)ccc2c1
7. c1ccc2cc(CO[C@@H]3CCNC3)ccc2c1
8. Fc1ccc2cc(CCN3CCNCC3)ccc2c1

[4.4, 10.6, 0.827, 0.08, 8.4, 1.8, 1.2, 10.5]

Given the entry `CCCCN(C1CCNCC1)S(=O)(=O)c1ccc2ccccc2c1` , report its measured IC50.
40
